Assay: fission yeast growth modulation, primary screen, strain 972, OD600, 24 h, no modulator (AID 1090);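 further: basal condition with compound alone and no growth modifier present; test concentration not given here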
Conditions: S. pombe 972 growth, higher = more signal, called active from +8 up or from −8 down
Calls of active or inactive are those of the source.
Observed Property: z-score

| Molecule | Observed Property | Observed Value |
| --- | --- | --- |
| N#Cc1ccc(C(O)C2C=CC3C(=O)N(c4ccccc4)C(=O)C3N2Nc2ccc([N+](=O)[O-])cc2)cc1 (centres undefined) | z-score | 0.602 (inactive) |
| COCC(=C=CC[C@@H](O)c1ccc(OCCO)cc1)C[C@@H](O)COCc1ccccc1 | z-score | -0.979 (inactive) |
| COCCOC(=O)N1C(=O)[C@@]2(c3cc(C#CC4(O)CCCCCC4)ccc31)[C@H](c1ccc(OCCO)cc1)N1[C@H](c3ccccc3)[C@H](c3ccccc3)OC(=O)[C@H]1[C@@H]2C(=O)N1CCCCCCC1 | z-score | 0.598 (inactive) |
| Cc1ccccc1C(O)C1C=CC2C(=O)N(c3ccccc3)C(=O)C2N1Nc1ccccc1F (centres undefined) | z-score | 0.592 (inactive) |
